Target: T1, human CCR8 (human, UniProt P51685 1-355)
T1 construct: whole, on cells; also called hCCR8
T1 sequence (P51685 whole entry): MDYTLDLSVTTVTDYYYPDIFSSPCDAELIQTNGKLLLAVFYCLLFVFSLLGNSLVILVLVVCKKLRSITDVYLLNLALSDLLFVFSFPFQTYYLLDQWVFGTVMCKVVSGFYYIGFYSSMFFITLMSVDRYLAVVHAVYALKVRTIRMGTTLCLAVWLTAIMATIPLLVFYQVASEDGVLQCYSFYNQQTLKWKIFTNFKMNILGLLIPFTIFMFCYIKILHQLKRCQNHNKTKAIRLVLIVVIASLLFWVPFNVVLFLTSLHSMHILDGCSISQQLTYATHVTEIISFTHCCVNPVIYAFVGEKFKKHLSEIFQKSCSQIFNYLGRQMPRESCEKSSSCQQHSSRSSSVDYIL
Assay: FACS, competition with AF647-human CCL1 on CHO-K1-human CCR8 cells
Max Inhibition (%) for assorted binders
Form field: result (number plus unit)

Hu348-9 (antibody, V domains shown, humanized IgG) VH: EVQLVESGGGLVQPGGSLKLSCATSGFSFSNYRMHWLRQASGKGLEWVGVITVKSDNYGANYAASVKGRFTISRDDSKSSVYLQMNSLKTEDTAVYYCTSLGRVAYWGQGTLVTVSS VL: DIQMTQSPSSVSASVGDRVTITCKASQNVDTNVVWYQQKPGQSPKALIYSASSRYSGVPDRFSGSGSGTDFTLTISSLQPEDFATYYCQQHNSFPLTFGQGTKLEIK ... 88.2%

Inquiry: # Max Inhibition (%) lookup, item Hu348-5 (antibody, V domains shown, humanized IgG) VH: EVQLVESGGGLVQPGGSLKLSCAASGFSFSNYAMHWLRQASGKGLEWVGVITVKSDNYGANYAASVKGRFTISRDDSKSSVYLQMNSLKTEDTAVYYCSSLGRVAYWGQGTLVTVSS VL: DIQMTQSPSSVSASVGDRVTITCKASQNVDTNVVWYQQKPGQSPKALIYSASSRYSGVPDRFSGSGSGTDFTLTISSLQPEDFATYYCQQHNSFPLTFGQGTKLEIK
Reply text: 1.39%

Inquiry: # Max Inhibition (%) lookup, item Hu348-1 (antibody, V domains shown, humanized IgG) VH: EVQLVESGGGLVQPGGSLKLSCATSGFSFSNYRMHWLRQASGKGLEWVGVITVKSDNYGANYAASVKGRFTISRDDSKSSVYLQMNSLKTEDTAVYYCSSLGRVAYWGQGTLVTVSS VL: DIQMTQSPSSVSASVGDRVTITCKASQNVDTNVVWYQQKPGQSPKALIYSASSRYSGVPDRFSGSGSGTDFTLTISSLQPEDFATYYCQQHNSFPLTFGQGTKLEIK
Reply text: 94.1%
